Origin of the recorded values: PubChem BioAssay AID2060890

Test system: LG0703-F948-PDC complex spheroid viability
PROCEDURE TEXT: Anticancer human tumor LG0703-F948-PDC patient-derived lung adenocarcinoma cell line growth inhibition [RAS]
RUN CONDITIONS: second compound 0.000949 µM; first compound 0.316 µM; hits give low values
Rule: measured viability, T/C below 40% gets yes; anything equal to or greater than 40% gets no.

The examples below pair each entry with its known result.
Below 40% on viability, T/C? Entry CCN1CCN(Cc2ccc(Nc3ncc(F)c(-c4cc(F)c5nc(C)n(C(C)C)c5c4)n3)nc2)CC1 + CCn1c(-c2cc(N3CCN(C)CC3)cnc2C(C)OC)c2c3cc(ccc31)-c1csc(n1)CC(NC(=O)C1CC1C)C(=O)N1CCCC(N1)C(=O)OCC(C)(C)C2
no

Param item: CC(Nc1ccc2c(c1)OCCn1cc(N3C(=O)OCC3C(F)F)nc1-2)C(N)=O (stereo not given) + CCn1c(-c2cccnc2C(C)OC)c2c3cc(ccc31)N1CCOC(CC(NC(=O)C(C(C)C)N(C)C(=O)C3(F)CCN(C(=O)C#CC(C)(C)N(C)C)CC3)C(=O)N3CCCC(N3)C(=O)OCC(C)(C)C2)C1
no

// same read-out, input: C=CC(=O)Nc1cc(Nc2nccc(-c3cn(C)c4ccccc34)n2)c(OC)cc1N(C)CCN(C)C + CCn1c(-c2cc(N3CCN(C)CC3)cnc2C(C)OC)c2c3cc(ccc31)-c1csc(n1)CC(NC(=O)C1CC1C)C(=O)N1CCCC(N1)C(=O)OCC(C)(C)C2
yes

Next:
Lab note: confirm whether the reported viability, T/C for this molecule is below 40%, equality not counting. molecule: C=CC(=O)N1CCN(c2nc(OCC3CCCN3C)nc3c(F)c(-c4nc(N)cc(C)c4C(F)(F)F)c(Cl)cc23)C(C)C1 (stereo not given) + CCn1c(-c2cccnc2C(C)OC)c2c3cc(ccc31)N1CCOC(CC(NC(=O)C(C(C)C)N(C)C(=O)C3(F)CCN(C(=O)C#CC(C)(C)N(C)C)CC3)C(=O)N3CCCC(N3)C(=O)OCC(C)(C)C2)C1
no

Also need C=CC(=O)Nc1cc(Nc2nccc(-c3cn(C)c4ccccc34)n2)c(OC)cc1N(C)CCN(C)C + CCn1c(-c2cccnc2C(C)OC)c2c3cc(ccc31)N1CCOC(CC(NC(=O)C(C(C)C)N(C)C(=O)C3(F)CCN(C(=O)C#CC(C)(C)N(C)C)CC3)C(=O)N3CCCC(N3)C(=O)OCC(C)(C)C2)C1 , thanks.
yes

Param item: CCN1CCN(Cc2ccc(Nc3ncc(F)c(-c4cc(F)c5nc(C)n(C(C)C)c5c4)n3)nc2)CC1 + CCn1c(-c2cccnc2C(C)OC)c2c3cc(ccc31)N1CCOC(CC(NC(=O)C(C(C)C)N(C)C(=O)C3(F)CCN(C(=O)C#CC(C)(C)N(C)C)CC3)C(=O)N3CCCC(N3)C(=O)OCC(C)(C)C2)C1
no

Now the molecule CC(=O)OC12COC1CC(O)C1(C)C(=O)C(O)C3=C(C)C(OC(=O)C(O)C(NC(=O)OC(C)(C)C)c4ccccc4)CC(O)(C(OC(=O)c4ccccc4)C21)C3(C)C (stereo not given) + CCn1c(-c2cc(N3CCN(C)CC3)cnc2C(C)OC)c2c3cc(ccc31)-c1csc(n1)CC(NC(=O)C1CC1C)C(=O)N1CCCC(N1)C(=O)OCC(C)(C)C2
yes

Now try C=CC(=O)N1CCN(c2nc(OCC3CCCN3C)nc3c(F)c(-c4nc(N)cc(C)c4C(F)(F)F)c(Cl)cc23)C(C)C1 (stereo not given) + CCn1c(-c2cc(N3CCN(C)CC3)cnc2C(C)OC)c2c3cc(ccc31)-c1csc(n1)CC(NC(=O)C1CC1C)C(=O)N1CCCC(N1)C(=O)OCC(C)(C)C2 .
no

Also need Cc1nc(N2CCC3(CC2)COC(C)C3N)c(CO)nc1Sc1ccnc(N)c1Cl (stereo not given) + CCn1c(-c2cc(N3CCN(C)CC3)cnc2C(C)OC)c2c3cc(ccc31)-c1csc(n1)CC(NC(=O)C1CC1C)C(=O)N1CCCC(N1)C(=O)OCC(C)(C)C2 , thanks.
yes

Also need CC(=O)OC12COC1CC(O)C1(C)C(=O)C(O)C3=C(C)C(OC(=O)C(O)C(NC(=O)OC(C)(C)C)c4ccccc4)CC(O)(C(OC(=O)c4ccccc4)C21)C3(C)C (stereo not given) + CCn1c(-c2cccnc2C(C)OC)c2c3cc(ccc31)N1CCOC(CC(NC(=O)C(C(C)C)N(C)C(=O)C3(F)CCN(C(=O)C#CC(C)(C)N(C)C)CC3)C(=O)N3CCCC(N3)C(=O)OCC(C)(C)C2)C1 , thanks.
yes

Try this molecule next: NC1c2ccccc2OC12CCN(c1cnc3c(N4CCCc5ncccc54)n[nH]c3n1)CC2 (stereo not given) + CCn1c(-c2cccnc2C(C)OC)c2c3cc(ccc31)N1CCOC(CC(NC(=O)C(C(C)C)N(C)C(=O)C3(F)CCN(C(=O)C#CC(C)(C)N(C)C)CC3)C(=O)N3CCCC(N3)C(=O)OCC(C)(C)C2)C1
yes

Subsequent entry: C[C@@H](NC(=O)c1ncnc(N)c1Cl)c1ncc(C(=O)Nc2cc(C(F)(F)F)c(Cl)cn2)s1 + CCn1c(-c2cc(N3CCN(C)CC3)cnc2C(C)OC)c2c3cc(ccc31)-c1csc(n1)CC(NC(=O)C1CC1C)C(=O)N1CCCC(N1)C(=O)OCC(C)(C)C2
no

Next: O=C(c1ccc(F)c(F)c1Nc1ccc(I)cc1F)N1CC(O)([C@@H]2CCCCN2)C1 + CCn1c(-c2cc(N3CCN(C)CC3)cnc2C(C)OC)c2c3cc(ccc31)-c1csc(n1)CC(NC(=O)C1CC1C)C(=O)N1CCCC(N1)C(=O)OCC(C)(C)C2
yes

# iterate: NC1c2ccccc2OC12CCN(c1cnc3c(N4CCCc5ncccc54)n[nH]c3n1)CC2 (stereo not given) + CCn1c(-c2cc(N3CCN(C)CC3)cnc2C(C)OC)c2c3cc(ccc31)-c1csc(n1)CC(NC(=O)C1CC1C)C(=O)N1CCCC(N1)C(=O)OCC(C)(C)C2
yes

====

Listing of recorded viability, T/C by entry.
Test system: LG0703-F948-PDC complex spheroid viability
PROCEDURE TEXT: Anticancer human tumor LG0703-F948-PDC cell line growth inhibition [RAS];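 also: spheroids exposed to agents for 7 days; 100% = DMSO vehicle wells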
RUN CONDITIONS: second compound 0.000949 µM; first compound 1 µM; hits give low values
Please give a number only; it is taken to be in %.

# get_value(readout= viability, T/C, system= LG0703-F948-PDC complex spheroid viability) for CC(C)NCC(C(=O)N1CCN(c2ncnc3c2C(C)CC3O)CC1)c1ccc(Cl)cc1 (stereo not given) + CCn1c(-c2cc(N3CCN(C)CC3)cnc2C(C)OC)c2c3cc(ccc31)-c1csc(n1)CC(NC(=O)C1CC1C)C(=O)N1CCCC(N1)C(=O)OCC(C)(C)C2
30

Also check Nc1ccn(C2OC(CO)C(O)C2(F)F)c(=O)n1 (stereo not given) + CCn1c(-c2cc(N3CCN(C)CC3)cnc2C(C)OC)c2c3cc(ccc31)-c1csc(n1)CC(NC(=O)C1CC1C)C(=O)N1CCCC(N1)C(=O)OCC(C)(C)C2
36.2

Now give it for CC(=O)OC12COC1CC(O)C1(C)C(=O)C(O)C3=C(C)C(OC(=O)C(O)C(NC(=O)OC(C)(C)C)c4ccccc4)CC(O)(C(OC(=O)c4ccccc4)C21)C3(C)C (stereo not given) + CCn1c(-c2cc(N3CCN(C)CC3)cnc2C(C)OC)c2c3cc(ccc31)-c1csc(n1)CC(NC(=O)C1CC1C)C(=O)N1CCCC(N1)C(=O)OCC(C)(C)C2 too.
30.1

Also, CCN1CCN(Cc2ccc(Nc3ncc(F)c(-c4cc(F)c5nc(C)n(C(C)C)c5c4)n3)nc2)CC1 + CCn1c(-c2cccnc2C(C)OC)c2c3cc(ccc31)N1CCOC(CC(NC(=O)C(C(C)C)N(C)C(=O)C3(F)CCN(C(=O)C#CC(C)(C)N(C)C)CC3)C(=O)N3CCCC(N3)C(=O)OCC(C)(C)C2)C1 please.
80.5

As a next step, examine the molecule that follows.
Give viability, T/C (LG0703-F948-PDC complex spheroid viability) of the following molecule: CC(Nc1ccc2c(c1)OCCn1cc(N3C(=O)OCC3C(F)F)nc1-2)C(N)=O (stereo not given) + CCn1c(-c2cc(N3CCN(C)CC3)cnc2C(C)OC)c2c3cc(ccc31)-c1csc(n1)CC(NC(=O)C1CC1C)C(=O)N1CCCC(N1)C(=O)OCC(C)(C)C2
22.5

====

Tested on: LG0703-F948-PDC complex spheroid viability
PROCEDURE TEXT: Anticancer human tumor LG0703-F948-PDC cell line growth inhibition [RAS]; active = viability on the fitted dose curve at most 10% of control; inactive = the rest;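 also: spheroids exposed to agents for 7 days; 100% = DMSO vehicle wells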
RUN CONDITIONS: second compound 0.0949 µM; first compound 0.316 µM
Can you answer with just one of these options? active, inactive

Per the assay record, what outcome was assigned to C=CC(=O)N1CCN(c2nc(OCC3CCCN3C)nc3c(F)c(-c4nc(N)cc(C)c4C(F)(F)F)c(Cl)cc23)C(C)C1 (stereo not drawn) + CCn1c(-c2cccnc2C(C)OC)c2c3cc(ccc31)N1CCOC(CC(NC(=O)C(C(C)C)N(C)C(=O)C3(F)CCN(C(=O)C#CC(C)(C)N(C)C)CC3)C(=O)N3CCCC(N3)C(=O)OCC(C)(C)C2)C1 ?
inactive

Continue with the next compound.
What is the recorded call for this compound in the test? CC(Nc1ccc2c(c1)OCCn1cc(N3C(=O)OCC3C(F)F)nc1-2)C(N)=O (stereo not drawn) + CCn1c(-c2cc(N3CCN(C)CC3)cnc2C(C)OC)c2c3cc(ccc31)-c1csc(n1)CC(NC(=O)C1CC1C)C(=O)N1CCCC(N1)C(=O)OCC(C)(C)C2
active
